Test system: Hs-578T
Test: NCI tumour cell line growth inhibition, 48 h
Calls of active or inactive are those of the source. No stated cut-off is given here; in the data, active = GI50 up to about 1.1 µM and inactive = higher. Where a SMILES comes first, the peptide text is derived from it. [ ]: non-standard residue; d: D form. The star is where a group is joined. ξ: configuration not given here. ξD = NC(CC(=O)O)C(=O)O; Boc = CC(C)(C)OC(=O)*; Aib = CC(C)(N)C(=O)O; OtBu = CC(C)(C)O*
I would appreciate it if you answered using one of these outcomes: YES for active, NO for inactive

Task: What is the recorded call for this molecule in the test? C=C1C(C)C2C(Cc3ccccc3)NC(=O)C23C(OC(C)=O)C=CC(C)(O)C(=O)C(C)C/C=C/C3C1O (configuration not stated)
Output: YES

Task: What is the recorded call for this molecule in the test? `C=C1CC2(OC1=O)c1ccccc1CCc1ccccc12`
Output: NO

Task: What is the recorded call for this molecule in the test? CCCCCCCC(CC(=O)NC(CO)C(=O)NC(CO)CC(C)C)OC(=O)CC(CCCCCCC)OC(=O)CC(CCCCCCC)OC1OC(C)C(O)C(OC2OC(C)C(O)C(O)C2O)C1O (configuration not stated)
Output: NO

Task: What is the recorded call for this molecule in the test? `Cc1cc2c(cc1C(=O)c1ccc(N)cc1)OCO2`
Output: NO

Task: What is the recorded call for this molecule in the test? COc1ccc(-c2c(C#N)c(N)n(C3OC(CO)C(O)C(O)C3O)c(=S)c2C#N)cc1 (configuration not stated)
Output: NO

Task: What is the recorded call for this molecule in the test? `CCNC1=C(NC(=O)CCl)C(=O)c2ccccc2C1=O`
Output: NO

Task: What is the recorded call for this molecule in the test? C=C(C)[C@@H]1CC[C@@H]2C(=CC[C@]3(C)C([C@H](C)CC/C=C(/C)C(=O)O)CC[C@@]23C)[C@@]1(C)CCC(=O)O (some centres not stated)
Output: NO

Task: What is the recorded call for this molecule in the test? `CC(=O)NS(=O)(=O)c1ccc(NCc2cccc3c(=O)c4ccc(Cl)cc4oc23)cc1`
Output: NO

Task: What is the recorded call for this molecule in the test? `COc1ccc(C(c2c[nH]c3ccc(Br)cc23)c2c[nH]c3ccc(Br)cc23)cc1`
Output: YES

Task: What is the recorded call for this molecule in the test? `COc1cc(-c2cc(OC)c(OC)c3ccc(Br)cc23)c2cc(Br)ccc2c1OC`
Output: NO

Task: What is the recorded call for this molecule in the test? `COC(=O)c1ccccc1/C=C1/Cc2ccccc2C1=O`
Output: NO

Task: What is the recorded call for this molecule in the test? `COc1ccc2c(c1OC)C[C@@H]1c3c(cc4c(c3-2)OCO4)CCN1C`
Output: NO

Task: What is the recorded call for this molecule in the test? COC(=O)C(C)(C)NC(=O)C(C)(C)NC(=O)C(CC(=O)OC(C)(C)C)NC(=O)OC(C)(C)C (configuration not stated) (Boc-[ξD](OtBu)-[Aib]-[Aib]-OMe)
Output: NO

Task: What is the recorded call for this molecule in the test? Fc1ccc2c(c1)nc1n2C(c2c(F)cccc2F)SC1 (configuration not stated)
Output: NO

Task: What is the recorded call for this molecule in the test? `O=C1Cc2c([nH]c3ccc(Br)cc23)-c2cc(O)c(O)cc2N1`
Output: NO

Task: What is the recorded call for this molecule in the test? `CCCCc1ccc(Nc2nc(S)c3[nH]cnc3n2)cc1`
Output: NO

Task: What is the recorded call for this molecule in the test? `Cc1c(/C=N/NC(=S)N2CCCCC2)c(=O)n(-c2ccccc2)n1C`
Output: NO

* * *

Tested on: SK-MEL-5
Assay: NCI tumour cell line growth inhibition, 48 h
The source made the active and inactive calls. Cut-off read from the data, not from the text of the source: active = GI50 up to about 1.1 µM and inactive = higher.
I would appreciate it if you answered using one of these outcomes: active, inactive

Task: What is the recorded call for this molecule in the test? CCOC(=O)C1=CC(C)(C(=O)OCC)Nc2c(nc(SC)[nH]c2=O)N1 (configuration not stated)
Output: inactive

Task: What is the recorded call for this molecule in the test? `N#CCCN(c1ccc(C=O)cc1)S(=O)(=O)c1ccccc1`
Output: inactive

Task: What is the recorded call for this molecule in the test? `Cc1cc2c(cc1C(=O)c1ccc(N)cc1)OCO2`
Output: inactive

Task: What is the recorded call for this molecule in the test? `O=C(NC1CCN(Cc2ccccc2)CC1)c1cccc(I)c1`
Output: inactive

Task: What is the recorded call for this molecule in the test? COC(=O)c1cccc(N[C@@H]2c3cc4c(cc3C(c3cc(OC)c(O)c(OC)c3)[C@H]3C(=O)OCC32)OCO4)c1 (some centres not stated)
Output: active

Task: What is the recorded call for this molecule in the test? COc1cc(C2c3cc4c(cc3[C@@H](N(C)c3ccc(N(C)C)cc3)C3COC(=O)C23)OCO4)cc(OC)c1O (some centres not stated)
Output: active

Task: What is the recorded call for this molecule in the test? CC1CC[C@@]2(OC1)O[C@H]1C[C@H]3[C@@H]4CC[C@H]5C[C@@H](OC6OC(CO)C(OC7OC(CO)C(OC8OC(CO)C(O)C(OC9OC(C)C(OC%10OC(C)C(O)C(O)C%10O)C(O)C9O)C8OC8OCC(O)C(O)C8O)C(O)C7O)C(O)C6O)CC[C@]5(C)[C@H]4CC(=O)[C@]3(C)[C@H]1[C@@H]2C (some centres not stated)
Output: inactive

Task: What is the recorded call for this molecule in the test? Nc1nc(O)c2ncn(C3C=CC(CO)O3)c2n1 (configuration not stated)
Output: inactive

Task: What is the recorded call for this molecule in the test? C=C(C)[C@@H]1CC[C@@H]2C(=CC[C@]3(C)C([C@H](C)CC/C=C(/C)C(=O)O)CC[C@@]23C)[C@@]1(C)CCC(=O)O (some centres not stated)
Output: inactive

Task: What is the recorded call for this molecule in the test? `Cn1c(=O)oc2nc(-c3ccccc3)cc(C(F)(F)F)c21`
Output: inactive

Task: What is the recorded call for this molecule in the test? `CCOC(=O)NC1=C(N2CC2)C(=O)C(NC(=O)OCC)=C(N2CC2)C1=O`
Output: inactive

Task: What is the recorded call for this molecule in the test? `Cc1c2cc[n+](C)cc2c(C)c2c1[nH]c1ccc(OC(C)C)cc12`
Output: inactive

Task: What is the recorded call for this molecule in the test? CCN1N=CSC12C(=O)N(c1ccccc1)C(=O)N2c1ccccc1 (configuration not stated)
Output: inactive

Task: What is the recorded call for this molecule in the test? `Cc1ccc([N+](=O)[O-])c2c(NCCNC(=O)c3cc(C(=O)NCCNc4ccnc5c(C)ccc([N+](=O)[O-])c45)n(C)n3)ccnc12`
Output: inactive

Task: What is the recorded call for this molecule in the test? `CN(C)CCNC(=O)c1cnn(C)c1[N+](=O)[O-]`
Output: inactive

Task: What is the recorded call for this molecule in the test? `c1ccc2c3c(ccc2c1)-c1[nH]ncc1CCO3`
Output: inactive

Task: What is the recorded call for this molecule in the test? `CCOC(=O)C(C(=O)c1ccccc1)=C1NCCN1`
Output: inactive

Task: What is the recorded call for this molecule in the test? NC(=O)c1c[se]c(C2OC(COP(=O)(O)CP(=O)(O)OCC3OC(n4cnc5c(N)ncnc54)C(O)C3O)C(O)C2O)n1 (configuration not stated)
Output: inactive

Task: What is the recorded call for this molecule in the test? CN(C)N1C(=C(C#N)C#N)C(c2ccccc2)CC1C#N (configuration not stated)
Output: inactive

Task: What is the recorded call for this molecule in the test? NC(=O)CCC(NCc1c2ccccc2[n+]([O-])c2ccccc12)C(=O)O (configuration not stated)
Output: inactive

Task: What is the recorded call for this molecule in the test? CCCC1C[C@H]2CCCCN2[C@H]2CCCN12 (some centres not stated)
Output: inactive

Task: What is the recorded call for this molecule in the test? `O=C(Cc1nc2ccc(C(=O)c3ccccc3)cc2nc1O)C(=O)Nc1nc2ccccc2[nH]1`
Output: inactive

Task: What is the recorded call for this molecule in the test? CC(=O)OCC1CCC(=C2C(=O)OC(C)(C)OC2=O)N1 (configuration not stated)
Output: inactive

Task: What is the recorded call for this molecule in the test? `O=C(O)CN1CCN(CC(=O)N2CCN(C(=O)OCc3ccccc3)CC2)CCN(CC(=O)O)CCN(CC(=O)N2CCN(C(=O)OCc3ccccc3)CC2)CC1`
Output: inactive

Task: What is the recorded call for this molecule in the test? `Cc1ccc2nc3[nH]nc(N)c3nc2c1`
Output: inactive

Task: What is the recorded call for this molecule in the test? NC(C/C=C/P(=O)(O)O)C(=O)O (configuration not stated)
Output: inactive

Task: What is the recorded call for this molecule in the test? `COc1ccc2cc(C(=O)O)ccc2c1OC`
Output: inactive

Task: What is the recorded call for this molecule in the test? `NC(=S)N/N=C1\C(=O)C=C(Nc2ccc(Cl)cc2Cl)c2ccccc21`
Output: inactive

Task: What is the recorded call for this molecule in the test? `Cn1c(C(C)(C)OC(=O)Oc2ccccc2)cnc1[N+](=O)[O-]`
Output: inactive

Task: What is the recorded call for this molecule in the test? `O=c1cc(-c2ccccc2)c2cc3c(=O)ccoc3cc2o1`
Output: inactive

Task: What is the recorded call for this molecule in the test? CCCCN(CC)C(=O)C(=O)C1C(=O)Nc2ccccc2[S+]1[O-] (configuration not stated)
Output: inactive

Task: What is the recorded call for this molecule in the test? `Cc1cc(N(CCC#N)CCC#N)ccc1C(/N=N\c1ccc([N+](=O)[O-])cc1)=N\NC(=O)c1cc(Cl)ccc1O`
Output: inactive

Task: What is the recorded call for this molecule in the test? `CC(=O)OCCCCn1nncc1Cn1ccc(=O)n(Cc2cnnn2CCCCOC(C)=O)c1=O`
Output: inactive

Task: What is the recorded call for this molecule in the test? C/C1=C/C(C)CC(C)OC(=O)C(C)NC(=O)C(Cc2ccc(O)c(I)c2)N(C)C(=O)C(C)NC(=O)C(C)C1 (configuration not stated)
Output: active

Task: What is the recorded call for this molecule in the test? CCCCCCCC(CC(=O)NC(CO)C(=O)NC(CO)CC(C)C)OC(=O)CC(CCCCCCC)OC(=O)CC(CCCCCCC)OC1OC(C)C(O)C(OC2OC(C)C(O)C(O)C2O)C1O (configuration not stated)
Output: inactive

Task: What is the recorded call for this molecule in the test? O=C(O)CC1OCC=C2CN3CCC45c6ccccc6NC4C1C2CC35 (configuration not stated)
Output: inactive

Task: What is the recorded call for this molecule in the test? `Cc1nc(=O)[nH]c(NCCNCCO)c1C(=O)Nc1cccc2cc3ccccc3cc12`
Output: inactive

Reference source for all entries: ChEMBL document CHEMBL1201862
